A compilation of IC50 values for human DGAT1 (Homo sapiens, UniProt O75907) from the published literature.
Property name: IC50 (nM)

N#C/N=C(/Nc1ccccc1Cl)N1CCN(c2ccc(NC(=O)CCCc3ccccc3)cc2)CC1
33.9

[a] O=C(CC1CCCCC1)Nc1ccc(C2CCN(C(=O)Nc3c(Cl)cccc3Cl)CC2)cc1
[b] O=C(O)C[C@H]1CC[C@@H](OC2CCN(c3ccc(-c4nc5ccc(F)cc5[nH]4)cn3)CC2)CC1
IN: # min-compare on IC50 between a and b To answer, give the label that identifies your chosen option.
OUT: b

[1] CCC1(CC(=O)O)CCc2cc(-c3ccc(NC(=O)Nc4cccc(C(F)(F)F)c4)c(F)c3)ccc2C1=O (stereo not drawn)
[2] O=C(CCCc1ccccc1)Nc1ccc(N2CCN(C(=O)C(O)c3ccc(F)cc3Cl)CC2)cc1 (stereo not drawn)
[3] O=C(O)C[C@H]1CC[C@@H](O[C@H]2C[C@H]3C[C@@H]2CN3c2ccc(-c3nc4cc(F)ccc4[nH]3)cn2)CC1 (single isomer, unassigned; enantiomer 1)
IN: Please list the entries, largest IC50 first. Arrange the labels as the request states and list them.
OUT: 2, 3, 1

[1] Cc1nc(C)c(-c2ccc(-c3c(F)cc(CC(=O)O)cc3F)cc2)nc1C(N)=O
[2] Cc1ccc(Nc2nnc(-c3ccc4nc(-c5c(Cl)cccc5Cl)[nH]c4c3)o2)cn1
IN: // pick larger IC50 from pair: 1 vs 2 To answer, give the label that identifies your chosen option.
OUT: 2
(2: 54 nM, 1: 13 nM)
